The reported measurements were obtained from patent US7205409B2.

Assay: Chemical Stability Assay (HPLC, phosphate buffer pH 7.4, 37° C.)
Type: physicochemical
Details: stability to internal cyclization, read-out: chemical stability half-life (T1/2) (converted)
The reader will find reported half-life values listed item by item below.
assay.readout: half-life (h)

>>> measured_result("N#C[C@@H]1CCCN1C(=O)[C@@H]1CC[C@H](c2ccccc2)N1 [Comparative compound γ]")
12.2
>>> measured_result("C[C@H]1CC[C@@H](C(=O)N2CCC[C@H]2C#N)N1 [Comparative compound α]")
5.3
